- measured.target: UniProt P10635
- Sequence (P10635 whole entry): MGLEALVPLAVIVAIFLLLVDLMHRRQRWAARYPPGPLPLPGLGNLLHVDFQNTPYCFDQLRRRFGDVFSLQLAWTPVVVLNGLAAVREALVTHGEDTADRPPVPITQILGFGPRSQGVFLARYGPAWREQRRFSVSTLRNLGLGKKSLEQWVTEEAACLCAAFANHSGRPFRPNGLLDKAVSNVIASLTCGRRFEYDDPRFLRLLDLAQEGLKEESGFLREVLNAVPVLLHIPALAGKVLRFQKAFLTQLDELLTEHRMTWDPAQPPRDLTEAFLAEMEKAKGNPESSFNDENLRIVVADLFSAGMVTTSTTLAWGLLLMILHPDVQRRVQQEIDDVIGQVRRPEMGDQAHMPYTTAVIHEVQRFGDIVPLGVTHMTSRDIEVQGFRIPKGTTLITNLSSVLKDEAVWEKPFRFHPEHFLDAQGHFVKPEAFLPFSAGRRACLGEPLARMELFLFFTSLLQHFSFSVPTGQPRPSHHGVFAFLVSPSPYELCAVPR
experimental.endpoint: pIC50
One number for each entry, as −log10 of the molar value.

[Q] Request body: readout pIC50, system UniProt P10635, query O=C(O)CN(Cc1cccc(-c2ccccc2OC(F)(F)F)c1)S(=O)(=O)c1ccc(OC(F)F)cc1 . Return the value.
[A] 4.40

====

- test.name: Dissociation constant, pKa of compound at pH 2 to […] by spectrophotometric titration method
- Format: physicochemical
experimental.endpoint: pKa
Answers are plain numbers.

[Q] What value of measured pKa is listed for CC1(C)CCc2cc(S(=O)(=O)N(CC(=O)O)Cc3cccc4cccnc34)ccc2O1 ?
[A] 2

====

- test.name: Metabolic stability in mouse liver microsomes assessed as residual compound at 3 uM preincubated for 2 mins followed by NADPH addition measured after 10 mins by LC-MS analysis
- Format: ADME
- condition.description: read-out: Stability
experimental.endpoint: remaining at 10 min, 3 µM (%)
Numbers only, in %.

Some solved entries appear below for comparison.
O=C(O)CN(C1(c2ccc(-c3ccccc3OC(F)(F)F)cc2)CCC1)S(=O)(=O)c1ccc(OC(F)F)cc1 = 100
CC1(C)CCc2cc(S(=O)(=O)N(CC(=O)O)C3(c4cccc(-c5cc(Cl)cc(Cl)c5)c4)CCC3)ccc2O1 = 77

Attention now shifts to the item below.
[Q] What value of measured remaining at 10 min, 3 µM is listed for CC1(C)CCc2cc(S(=O)(=O)N(CC(=O)O)Cc3cccc(-c4ccccc4)c3)ccc2O1 ?
[A] 87

====

Task for the reader: assign each of the following compounds its reported IC50.
- measured.target: Diacylglycerol lipase-alpha (Homo sapiens, UniProt Q9Y4D2)
- Sequence (Q9Y4D2 whole entry): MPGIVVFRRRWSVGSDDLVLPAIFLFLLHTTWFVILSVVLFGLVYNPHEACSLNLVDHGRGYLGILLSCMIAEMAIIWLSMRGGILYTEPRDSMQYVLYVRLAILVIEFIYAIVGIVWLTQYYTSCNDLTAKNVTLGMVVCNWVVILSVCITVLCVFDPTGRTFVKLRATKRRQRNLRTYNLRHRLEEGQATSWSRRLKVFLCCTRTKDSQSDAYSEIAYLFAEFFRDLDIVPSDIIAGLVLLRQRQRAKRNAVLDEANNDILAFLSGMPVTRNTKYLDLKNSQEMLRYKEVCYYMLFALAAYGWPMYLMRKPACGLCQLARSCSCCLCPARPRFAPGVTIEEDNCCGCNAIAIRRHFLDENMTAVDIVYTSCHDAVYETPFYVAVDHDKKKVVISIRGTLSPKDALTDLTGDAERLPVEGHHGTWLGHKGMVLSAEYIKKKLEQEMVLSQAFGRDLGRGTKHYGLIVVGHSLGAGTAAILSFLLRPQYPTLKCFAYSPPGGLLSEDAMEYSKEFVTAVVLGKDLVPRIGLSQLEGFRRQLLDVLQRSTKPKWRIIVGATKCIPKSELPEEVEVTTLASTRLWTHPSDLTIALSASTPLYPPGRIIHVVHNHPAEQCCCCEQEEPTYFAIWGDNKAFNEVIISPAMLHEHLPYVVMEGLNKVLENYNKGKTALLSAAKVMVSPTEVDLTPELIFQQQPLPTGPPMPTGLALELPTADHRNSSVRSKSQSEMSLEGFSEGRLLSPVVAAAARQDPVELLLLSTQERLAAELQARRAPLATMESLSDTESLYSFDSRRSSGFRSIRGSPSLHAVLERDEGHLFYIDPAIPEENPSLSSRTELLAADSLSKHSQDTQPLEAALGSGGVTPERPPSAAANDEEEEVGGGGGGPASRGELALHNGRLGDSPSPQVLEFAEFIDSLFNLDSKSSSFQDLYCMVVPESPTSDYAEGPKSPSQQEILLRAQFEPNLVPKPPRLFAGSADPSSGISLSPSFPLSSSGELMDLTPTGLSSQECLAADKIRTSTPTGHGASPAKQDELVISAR
- test.name: Inhibition of full length human C-terminal HA-tagged DAGLalpha expressed in HEK293 cells using DAG as substrate assessed as reduction in intracellular 2-AG level incubated for 20 mins by LC-MS analysis
- Type: cell-based
Give bare numbers, in nM.

Some solved entries appear below for comparison.
O=C(O)CN(c1cccc(-c2cccc(Cl)c2Cl)c1)S(=O)(=O)c1ccc(OC(F)F)cc1 = 14.3
C[C@H](c1ccc(-c2ccc(Cl)cc2Cl)cc1)N(CC(=O)O)S(=O)(=O)c1ccc(OC(F)F)cc1 = 100
O=C(O)CN(C1(c2ccc(-c3ccc(Cl)cc3Cl)cc2)CCC1)S(=O)(=O)c1ccc(OC(F)F)cc1 = 88

[Q] What value of measured IC50 is listed for O=C(O)CN(Cc1cccc(-c2ccccc2OC(F)(F)F)c1)S(=O)(=O)c1ccc(OC(F)F)cc1 ?
[A] 60

====

- test.name: Metabolic stability in human liver microsomes assessed as residual compound at 3 uM preincubated for 2 mins followed by NADPH addition measured after 10 mins by LC-MS analysis
- Type: ADME
- condition.description: read-out: Stability
Task for the reader: assign each of the following compounds its reported remaining at 10 min, 3 µM.

CC1(C)CCc2cc(S(=O)(=O)N(CC(=O)O)C3(c4cccc(-c5cc(Cl)cc(Cl)c5)c4)CCC3)ccc2O1 = 79%
O=C(O)CN(C1(c2ccc(-c3ccccc3OC(F)(F)F)cc2)CCC1)S(=O)(=O)c1ccc(OC(F)F)cc1 = 78%
O=C(O)CN(Cc1cccc(-c2ccccc2OC(F)(F)F)c1)S(=O)(=O)c1ccc(OC(F)F)cc1 = 80%

[Q] What value of measured remaining at 10 min, 3 µM is listed for CC1(C)CCc2cc(S(=O)(=O)N(CC(=O)O)Cc3cccc(-c4ccccc4)c3)ccc2O1 ?
[A] 77%

src = ChEMBL document CHEMBL3763072
